Where do the numbers come from? From the supplement of paper PMC9112550.

test system: Escherichia coli TOP10; assay: shrunken log2 fold change of peptide-encoding DNA abundance (4.5 h post-induction vs induction); higher = less antimicrobial activity (less host growth inhibition); conditions: time post-induction: 4.5 h; library: site-saturation at positions 5, 18, 19, 20
measurementKind: shrunken log2 fold change
One number for each entry.

RRIRKRPPRLPRPRPRPTMNPRP :: -0.00264
RRIRCRPPRLPRPRPRPAFFPRP :: 0.0268
RRIRRRPPRLPRPRPRPVMKPRP :: -0.025
RRIRCRPPRLPRPRPRPKLYPRP :: -0.38
RRIRYRPPRLPRPRPRPEKPPRP :: -0.00145

Consider the following items and state reported shrunken log2 fold change for each.
1. RRIRCRPPRLPRPRPRPGKCPRP
2. RRIRNRPPRLPRPRPRPTYPPRP

Result:
[-0.173, -0.275]

###

system: Escherichia coli TOP10; test: shrunken log2 fold change of peptide-encoding DNA abundance (4.5 h post-induction vs induction); higher = less antimicrobial activity (less host growth inhibition); conditions: time post-induction: 4.5 h; library: site-saturation at positions 5, 18, 19, 20
Mark 0 (no) for shrunken log2 fold change values under 0.1, and 1 (yes) for everything at or above.

RRIRWRPPRLPRPRPRPNFHPRP :: 0 (no)

Task: Reported shrunken log2 fold change reaches at least 0.1 for RRIRERPPRLPRPRPRPEMFPRP ?
Result: 1 (yes)

Task: Reported shrunken log2 fold change reaches at least 0.1 for RRIRRRPPRLPRPRPRPENRPRP ?
Result: 0 (no)

Task: Reported shrunken log2 fold change reaches at least 0.1 for RRIRCRPPRLPRPRPRPCECPRP ?
Result: 0 (no)

Task: Reported shrunken log2 fold change reaches at least 0.1 for RRIRRRPPRLPRPRPRPKQCPRP ?
Result: 0 (no)

Task: Reported shrunken log2 fold change reaches at least 0.1 for RRIRIRPPRLPRPRPRPELWPRP ?
Result: 1 (yes)

Task: Reported shrunken log2 fold change reaches at least 0.1 for RRIRARPPRLPRPRPRPNPLPRP ?
Result: 1 (yes)

Task: Reported shrunken log2 fold change reaches at least 0.1 for RRIRSRPPRLPRPRPRPSEVPRP ?
Result: 0 (no)

###

system: Escherichia coli TOP10; assay: shrunken log2 fold change of peptide-encoding DNA abundance (4.5 h post-induction vs induction); higher = less antimicrobial activity (less host growth inhibition); settings: time post-induction: 4.5 h; library: site-saturation at positions 5, 18, 19, 20;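 note: peptides expressed intracellularly from a pBAD plasmid library in pooled LB shake-flask culture, induced with 0.3% L-arabinose, DNA abundance read by NGS, three biological replicates, DESeq2 with apeglm shrinkage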
# label = bin(measured shrunken log2 fold change), where bins are low = under -0.05, mid = from -0.05 up to 0.07, high = 0.07 and over

Solved entries:
RRIRYRPPRLPRPRPRPECMPRP :: low
RRIRFRPPRLPRPRPRPKTQPRP :: high
RRIRKRPPRLPRPRPRPECLPRP :: high
RRIRDRPPRLPRPRPRPFMDPRP :: low
RRIRTRPPRLPRPRPRPNYNPRP :: low

Task: Each sequence maps to one class by shrunken log2 fold change. Which class for RRIRYRPPRLPRPRPRPVPTPRP ?
Result: mid

Task: Each sequence maps to one class by shrunken log2 fold change. Which class for RRIRKRPPRLPRPRPRPVWRPRP ?
Result: mid

Task: Each sequence maps to one class by shrunken log2 fold change. Which class for RRIRPRPPRLPRPRPRPVRSPRP ?
Result: high
